The origin of these recorded values is ChEMBL document CHEMBL3217724.

Field: GI50. Provide a value for each of the molecules that follow.
experiment: Growth inhibition of pig LLC-PK1 cells by Alamar Blue assay; format: cell-based, Sus scrofa
Report the figure in nM without appending any unit label.

Respond only with GI50 recorded for "COc1cc(/C(C#N)=C/c2cc3ccccc3s2)cc(OC)c1OC" 9.7

Identify measured GI50 corresponding to "CC[C@]1(O)C[C@@H]2CN(CCc3c([nH]c4ccccc34)[C@@](C(=O)OC)(c3cc4c(cc3OC)N(C)[C@H]3[C@@](O)(C(=O)OC)[C@H](OC(C)=O)[C@]5(CC)C=CCN6CC[C@]43[C@@H]65)C2)C1" 1.5

Identify measured GI50 corresponding to "CC(=O)O[C@@]12CO[C@@H]1C[C@H](O)[C@@]1(C)C(=O)[C@H](O)C3=C(C)[C@@H](OC(=O)[C@H](O)[C@@H](NC(=O)OC(C)(C)C)c4ccccc4)C[C@@](O)([C@@H](OC(=O)c4ccccc4)[C@H]21)C3(C)C.O.O.O" 0.17
